Hey, just so you know, these numbers are from PubChem BioAssay (NCI).

Recorded measurements of TGI, one per entry
tested on: DU-145 prostate; assay: NCI tumour cell line growth inhibition, 48 h

>  <smiles structure>
CN(C)CCCN=c1cc2c(=O)n(CCCN(C)C)c(=O)c3c(NCCCN(C)C)cc4c(O)n(CCCN(C)C)c(=O)c1c4c3-2

>  <TGI>
9.51 µM

$$$$
>  <smiles structure>
O=C(/C=C\Nc1ccccc1O)C(Cl)(Cl)Cl

>  <TGI>
> 100 µM

$$$$
>  <smiles structure>
CCOC(=O)C1(C(=O)OCC)CC(=O)[C@@]2(C1)OCC[C@H]1OC(=O)C[C@H]12

>  <TGI>
> 100 µM

$$$$
>  <smiles structure>
CCOC(=O)c1cc(=O)oc2c1N(C)c1ncccc1N2

>  <TGI>
> 100 µM

$$$$

Could you now look at the following molecule, please?
Param item = O=C(O[C@H]1CN[C@H](C#Cc2cc3ncnc(Nc4ccc(OCc5cccc(F)c5)c(Cl)c4)c3s2)C1)N1CCOCC1 ; retrieve measured TGI.
> 25 µM

###

system: U251 CNS; assay: NCI tumour cell line growth inhibition, 48 h
Is TGI at least 20 µM? Then Fulfilled. If not, Not fulfilled.

>  <compound>
CC1=C(C(=O)NCC(C)O)CC(C(=O)NCC(C)O)=C(C)N1 (stereo unspecified)

>  <label>
Fulfilled

$$$$
>  <compound>
CCC(O)(c1ccc(OC)cc1)C(c1ccc(OCc2ccccc2)cc1)c1ccc(OCc2ccccc2)cc1 (stereo unspecified)

>  <label>
Fulfilled

$$$$
>  <compound>
COc1ccccc1N1CCN(C(=O)c2ccc(NS(=O)(=O)c3cccc4cccnc34)cc2)CC1

>  <label>
Fulfilled

$$$$

# check: TGI of CC1=C(C(=O)Nc2ccccc2)C(c2ccc(C)o2)C(C#N)=C(SCc2ccccc2)N1 (stereo unspecified) is greater than or equal to 20 µM
Fulfilled

Does COC(=O)c1ccc(CCc2cc(O)c(Br)cc2O)cc1 have a reported TGI of at least 20 µM?
Fulfilled

Quick check, TGI >= 20 µM? Cc1ccc(/C=N/Nc2nncc3ccccc23)s1
Fulfilled

###

tested on: MOLT-4 leukemia; experiment: NCI tumour cell line growth inhibition, 48 h; in the data active = GI50 below about 0.43 µM; inactive = the rest
API: response.call in true = active, false = inactive

Consider the worked cases shown below.
>  <compound>
O=C(Nc1ccc(Cl)cc1)c1cc2cc(F)ccc2cc1O

>  <label>
false

$$$$
>  <compound>
COc1cc([C@@H]2c3cc4c(cc3[C@H](OC(C)=O)[C@H]3COC(=O)[C@H]23)OCO4)cc(OC)c1OC

>  <label>
true

$$$$
>  <compound>
O=C(O[C@H]1CN[C@H](C#Cc2cc3ncnc(Nc4ccc(OCc5cccc(F)c5)c(Cl)c4)c3s2)C1)N1CCOCC1

>  <label>
false

$$$$

Status in this test for CC1(C)CCC2(C(=O)O)CC[C@]3(C)C(=CCC4C5(C)CC[C@H](OC6OC(C(=O)O)C(O)C(OC7OC(CO)C(O)C(O)C7O)C6OC6OC(CO)C(O)C(O)C6O)C(C)(C)C5CCC43C)C2C1 (some centres undefined) ?
false

###

tested on: HOP-62 NSCLC; experiment: NCI tumour cell line growth inhibition, 48 h
Measured GI50 of individual entries

Guide cases for GI50, answers given:
>  <compound>
N#C/C(=C/C=C/c1ccccc1)S(=O)c1ccccc1 (stereo not given)

>  <assay result>
1.29 µM

$$$$
>  <compound>
Cc1ccc2c(N/N=C\c3ccco3)cc(C)nc2n1

>  <assay result>
10 µM

$$$$
>  <compound>
O=C1/C(=C/c2ccccc2)CN(CCC(=O)N2C/C(=C\c3ccccc3)C(=O)/C(=C/c3ccccc3)C2)C/C1=C\c1ccccc1

>  <assay result>
19.2 µM

$$$$
>  <compound>
O=C1/C(=C/c2ccccc2Br)COc2ccc(O)c(O)c21

>  <assay result>
2.29 µM

$$$$

Item COc1ccccc1N1CCN(C(=O)c2ccc(NS(=O)(=O)c3cccc4cccnc34)cc2)CC1 with HOP-62 NSCLC - GI50?
> 49.7 µM

###

Below is a list of entries, each paired with its recorded TGI value.
test system: UACC-257 melanoma; assay: NCI tumour cell line growth inhibition, 48 h

>  <compound>
CC(NC(=O)C(N)CC(=O)O)NC(=O)N1CCOCC1 (stereo not given)

>  <TGI>
> 100 µM

$$$$
>  <compound>
COc1cc2c3c(n(Cc4ccccc4)c(=O)c2cc1OC)-c1ccccc1C3=O

>  <TGI>
> 100 µM

$$$$
>  <compound>
COc1cc(C(=O)Nc2c3ccccc3nc3ccccc23)cc(OC)c1OC

>  <TGI>
> 100 µM

$$$$
>  <compound>
COC(=O)c1cc2c3c(cc(O)c2[nH]1)N(C(=O)C1Cc2cc(OC)c(OC)c(OC)c2N1)CC3CCl (stereo not given)

>  <TGI>
< 0.01 µM

$$$$

Fill in the recorded TGI for this compound, with UACC-257 melanoma as test system: Cc1cccc2c1NC(=O)[C@@]21[C@H](C(=O)c2ccccc2)[C@]2(C(=O)Nc3ccccc32)[C@H]2CCCN21
> 100 µM

Report TGI for COc1ccc(Nc2nc(N)c(C(=O)c3ccccc3)s2)cc1 tested on UACC-257 melanoma.
> 100 µM

Observed TGI on UACC-257 melanoma for O=C(N/N=C\c1ccc([N+](=O)[O-])cc1)c1ccccc1Nc1ccccc1C(=O)N/N=C/c1ccc([N+](=O)[O-])cc1 , please.
> 100 µM

Hi! What's the reported TGI for O=c1ccccc(-c2ccc(-c3ccco3)cc2)c1O on UACC-257 melanoma?
18.8 µM

Query TGI on UACC-257 melanoma for c1ccc(/N=C2\c3ccccc3CN2c2ccccn2)nc1
> 100 µM

Notebook entry, UACC-257 melanoma assay: TGI of COc1cc2ccc(/C(C)=N/OC(C)=O)cc2cc1OC = ?
> 100 µM

###

Quick list: TGI per entry.
system: DLD-1 colon; test: NCI tumour cell line growth inhibition, 48 h

These recorded examples may help you get a feel for the data.
>  <compound>
CC(=O)O[C@H]1CCC2[C@@H]3CCC4Nc5c(cnn5-c5ccccc5)C[C@]4(C)C3CC[C@@]21C (some centres not stated)

>  <TGI>
> 100 µM

$$$$
>  <compound>
Nc1nc(N)c2nc(-c3ccco3)cnc2n1

>  <TGI>
> 100 µM

$$$$
>  <compound>
Cc1[nH]c2ccccc2c1C1CC(=O)NC1=O (configuration not stated)

>  <TGI>
> 100 µM

$$$$
>  <compound>
CC(C)c1cccc(C(C)C)c1N=C(N)C#N

>  <TGI>
> 65.6 µM

$$$$
>  <compound>
CCC(O)(c1ccc(OC)cc1)C(c1ccc(OCc2ccccc2)cc1)c1ccc(OCc2ccccc2)cc1 (configuration not stated)

>  <TGI>
> 100 µM

$$$$

# query: TGI of entry C/C(=N\NS(=O)(=O)c1ccc(C)cc1)c1c(O)cc(C)oc1=O
> 100 µM

Data request, read-out TGI, for O=C1C=C(N2CC2)C(=O)C=C1N1CC1
1.5 µM

###

system: A549 NSCLC; experiment: NCI tumour cell line growth inhibition, 48 h
measured endpoint: TGI

Solved entries:
>  <molecule>
CCCC1C(=O)C(CC)Cc2c(OC)ccc(OC)c21 (centres undefined)

>  <test target>
A549 NSCLC

>  <TGI>
> 100 µM

$$$$
>  <molecule>
O=C1C=C(N2CC2)C(=O)C=C1N1CC1

>  <test target>
A549 NSCLC

>  <TGI>
11.2 µM

$$$$
>  <molecule>
O=C(N/N=C\c1ccc([N+](=O)[O-])cc1)Nc1cccc2ccccc12

>  <test target>
A549 NSCLC

>  <TGI>
> 100 µM

$$$$
>  <molecule>
COc1ccc(Nc2nc(N)c(C(=O)c3ccccc3)s2)cc1

>  <test target>
A549 NSCLC

>  <TGI>
> 74.5 µM

$$$$
>  <molecule>
CC1(C)CCC2(C(=O)O)CC[C@]3(C)C(=CCC4C5(C)CC[C@H](OC6OC(C(=O)O)C(O)C(OC7OC(CO)C(O)C(O)C7O)C6OC6OC(CO)C(O)C(O)C6O)C(C)(C)C5CCC43C)C2C1 (some centres undefined)

>  <test target>
A549 NSCLC

>  <TGI>
> 100 µM

$$$$
>  <molecule>
CCN(CC)CCSc1nc2c(c(=N)n1-c1ccccc1)c(=S)n(-c1ccccc1)c(=S)n2-c1ccccc1

>  <test target>
A549 NSCLC

>  <TGI>
4.77 µM

$$$$

TGI lookup needed for O=CC1OC(=O)c2cc(O)c(O)c(O)c2-c2c(cc(O)c(O)c2O)C(=O)OC1C(O)C(O)CO (centres undefined) , thanks.
> 100 µM

# query: TGI of entry C=CCCC(C)N(C(=O)OC(C)(C)C)S(=O)(=O)c1ccc(C)cc1 (centres undefined)
> 100 µM

Using the record for CCOC(=O)c1cc(=O)oc2c1N(C)c1ncccc1N2 , report its TGI.
> 100 µM
